study-system: Protein deacetylase HDAC6 (Homo sapiens)
Sequence (Q9UBN7 whole entry): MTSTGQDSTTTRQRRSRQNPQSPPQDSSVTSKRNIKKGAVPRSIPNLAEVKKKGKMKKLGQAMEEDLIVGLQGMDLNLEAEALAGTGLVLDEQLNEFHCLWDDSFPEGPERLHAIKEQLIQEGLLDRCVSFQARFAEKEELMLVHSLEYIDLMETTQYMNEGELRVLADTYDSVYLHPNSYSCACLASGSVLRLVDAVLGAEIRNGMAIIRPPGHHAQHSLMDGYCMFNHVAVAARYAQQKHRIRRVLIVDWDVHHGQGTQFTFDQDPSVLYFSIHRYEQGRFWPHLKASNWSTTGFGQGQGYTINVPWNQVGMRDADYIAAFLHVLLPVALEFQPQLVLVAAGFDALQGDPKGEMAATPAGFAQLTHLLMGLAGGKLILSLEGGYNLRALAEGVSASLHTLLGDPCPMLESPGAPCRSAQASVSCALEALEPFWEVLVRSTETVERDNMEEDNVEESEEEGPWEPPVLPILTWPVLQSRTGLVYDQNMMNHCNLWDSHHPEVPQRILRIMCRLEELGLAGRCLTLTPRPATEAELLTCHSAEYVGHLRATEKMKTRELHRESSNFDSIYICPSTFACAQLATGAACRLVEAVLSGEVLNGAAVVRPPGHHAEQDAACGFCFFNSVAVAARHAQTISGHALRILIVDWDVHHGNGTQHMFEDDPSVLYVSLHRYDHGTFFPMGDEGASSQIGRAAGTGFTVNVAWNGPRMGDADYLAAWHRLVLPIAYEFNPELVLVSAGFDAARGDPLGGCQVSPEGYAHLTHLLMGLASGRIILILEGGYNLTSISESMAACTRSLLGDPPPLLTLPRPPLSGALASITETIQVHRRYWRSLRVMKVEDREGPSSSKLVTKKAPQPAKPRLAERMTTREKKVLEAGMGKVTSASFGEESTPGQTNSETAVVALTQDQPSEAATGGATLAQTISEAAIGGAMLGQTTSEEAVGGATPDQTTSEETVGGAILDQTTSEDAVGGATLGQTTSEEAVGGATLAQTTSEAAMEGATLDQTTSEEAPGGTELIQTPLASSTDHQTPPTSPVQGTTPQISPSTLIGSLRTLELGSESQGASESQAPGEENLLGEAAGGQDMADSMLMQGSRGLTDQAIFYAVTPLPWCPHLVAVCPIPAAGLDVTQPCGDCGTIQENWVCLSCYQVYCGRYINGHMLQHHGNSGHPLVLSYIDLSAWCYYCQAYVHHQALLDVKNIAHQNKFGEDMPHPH
Compiled IC50 measurements on Protein deacetylase HDAC6 (Homo sapiens) taken from the literature.

Examples with their reported IC50 follow.
smiles-string | study-system | IC50
CN1C[C@@H](C(=O)Nc2ccc(Cl)cc2)[C@H](c2ccc(/C=C/C(=O)Nc3ccccc3N)cc2)C1 | Protein deacetylase HDAC6 (Homo sapiens) | > 30 µM
N[C@@H](CCCCCC(=O)c1cocn1)c1ncc(-c2ccccc2F)[nH]1 | Protein deacetylase HDAC6 (Homo sapiens) | > 45 µM

Let's switch to this compound now.
Input: Report IC50 for Nc1ccccc1NC(=O)c1ccc(CCCNc2nc(N)n3nc(-c4ccco4)nc3n2)cc1 please.
Output: > 10 µM
